Examples of compounds with documented MIC follow.
Test system: Candida albicans
Assay: Antimicrobial activity against fluconazole-resistant Candida albicans
Assay type: functional
Answer in µg/mL, number only, no unit symbol.

CC1(C)CC[C@]2(C(=O)O)CC[C@]3(C)C(=CC[C@@H]4[C@@]5(C)CC[C@H](OCC(O)CCCCN)C(C)(C)[C@@H]5CC[C@]43C)[C@@H]2C1 (some centres not stated) :: 16

Turning to the following compound.
**Query** State its MIC for this compound: CC(=O)O[C@H]1CC[C@]2(C)[C@H]3CC=C4[C@@H]5CC(C)(C)CC[C@]5(C(=O)NCCCCCCCCN)CC[C@@]4(C)[C@]3(C)CC[C@H]2C1(C)C
**Result** 64
